Every entry's value here was drawn from patent US20230310388A1.

I'd be grateful if you could share measured MIC at 24-48 hours for these entries.
Tested on: Cryptococcus neoformans
protocol summary: CLSI broth microdilution MIC (Example 4)
Type: cell-based
condition label: Cryptococcus neoformans SA2

Nc1nc(N/N=C/c2cc(O)c(O)c(O)c2)cc(N/N=C/c2cc(O)c(O)c(O)c2)n1; >32 µg/mL

For every item in the list below, what is its measured MIC at 24-48 hours?
1. Cl.N=C(NN=Cc1ccccc1Cl)NN=Cc1ccccc1Cl
2. CC(=NNC(=N)N)c1c[nH]c2ccccc12
3. Cc1ccc(/C=N/Nc2cc(N/N=C/c3ccc(C)cc3)nc(N)n2)cc1

>32 µg/mL
>32 µg/mL
2 µg/mL
